# Tested on: Salmonella enteritidis No. 1891
# Assay Method Text: In vitro antibacterial activity (MIC)
# Format: cell-based
# Measurement Parameters: Salmonella enterica; Salmonella enteritidis No. 1891; read-out: minimum inhibitory concentration (MIC)
Structures can show the parent of a compound that is named as a salt.
Kindly supply the reported MIC values for the records listed here.
Numbers only, in mg/L.

Compound	Target Or Test System	MIC / mg/L
CC1(C)S[C@@H]2[C@H](NC(=O)[C@H](NC(=O)c3c[nH]c4nc(N5CCN(C=O)CC5)ncc4c3=O)c3ccccc3)C(=O)N2[C@H]1C(=O)O [Compound B, sodium salt]	Salmonella enteritidis No. 1891	0.78
CC1(C)S[C@@H]2[C@H](NC(=O)[C@H](NC(=O)c3c[nH]c4nc(N5CCN(C=O)CC5)ncc4c3=O)c3ccc(O)cc3)C(=O)N2[C@H]1C(=O)O [Compound 1, sodium salt]	Salmonella enteritidis No. 1891	0.78
CCN1CCN(C(=O)N[C@@H](C(=O)N[C@@H]2C(=O)N3[C@@H]2SC(C)(C)[C@@H]3C(=O)O)c2ccccc2)C(=O)C1=O [Compound H, sodium salt]	Salmonella enteritidis No. 1891	0.39

Query: // query MIC value for entry CC1(C)S[C@@H]2[C@H](NC(=O)[C@H](N)c3ccc(O)cc3)C(=O)N2[C@H]1C(=O)O [Compound M, sodium salt]
Response: 0.39
